system: SNB-19 CNS; assay: NCI tumour cell line growth inhibition, 48 h
property_label: TGI

                                   compound  observed
0      O=C(CN1CCCCC1)c1ccc2c(c1)Sc1ccccc1O2   28.9 µM
1             CCN(CC)CC(=O)/C=C/c1ccc(C)cc1  > 100 µM
2   COc1ccc(-c2nc(-c3cc4ccccc4oc3=O)cs2)cc1  > 100 µM
3  CN1C/C(=C\c2ccc(Cl)cc2)C(=O)/C(=C/c2ccc(Cl)cc2)C1  > 100 µM
4  Cc1cc(Nc2ccc(N=Nc3ccc(O)c4ncccc34)cc2)nc(C)n1  > 100 µM

Please find the next compound below.
Give a short answer stating reported TGI for O=C(NC1(C(=O)NNc2nnc(-c3ccccc3)c(-c3ccccc3)n2)C(c2ccccc2)C(c2ccccc2)=NN1c1ccccc1)c1ccccc1 (stereo not given) . > 100 µM
